Recorded values, source ChEMBL document CHEMBL5338752.

// Tmax lookup, one value per entry
Test: Tmax in sixteen hrs fasted Sprague-Dawley rat at 3 mg/kg, po measured upto 24 hrs by LC-MS/MS analysis
Type: ADME, organism-based
Settings: in vivo
Respond with the bare value in min.

CNC(=O)Oc1ccc2nc(-c3ccc4ccccc4c3)n(-c3ccnc(N[C@H]4CCCN(C(=O)C5CC5)C4)n3)c2c1    23.4

Query: Tmax; subject: CNC(=O)Oc1cc(F)c2nc(-c3ccc4ccccc4c3)n(-c3ccnc(N[C@H]4CCCN(C(=O)C5CC5)C4)n3)c2c1 23.4

---

Assay: AUC in sixteen hrs fasted Sprague-Dawley rat at 1 mg/kg, iv measured upto 24 hrs by LC-MS/MS analysis
Type: ADME, organism-based
Parameters: time < 24 hrs, dose 1 mg/kg, route iv
Settings: in vivo
measured_parameter: AUC at 24 h (ng·h/mL)
Respond with the bare value in ng·h/mL.

N#CCc1cnc(-c2ccc3ccccc3c2)n1-c1ccnc(N[C@H]2CCCN(C(=O)C3CC3)C2)n1    614

Query: AUC at 24 h; subject: O=C(C1CC1)N1CCC[C@H](Nc2nccc(-n3c(-c4ccc5ccccc5c4)nc4ccc(O)cc43)n2)C1 349
